System: c-Src
Test: phosphorylation enrichment, bacterial display (enrichment ratio); higher = better substrate or ligand; peptides without Tyr show the background
Mark Not met for phosphorylation enrichment values under 0.5, and Met for everything at or above.

# Input sequence, System tested, Label class
records = [
    ("RMSQRYGDVLQ [CYP1A2_Y72]", "c-Src", "Met"),
    ("YSGIYYKPESL [L2HGDH_Y103_H98Y]", "c-Src", "Met"),
    ("QGLMPYGQPRP [SRRT_Y798]", "c-Src", "Met"),
    ("HIAKVYRRDNP [HARS1_Y156]", "c-Src", "Met"),
    ("RCKNHYAAFSV [C1QTNF1_Y145_S143N]", "c-Src", "Met"),
    ("SHNKFYMLVAR [MFSD8_Y134_YF]", "c-Src", "Not met"),
    ("ATHRSYDSDNP [MMUT_Y146_G145S]", "c-Src", "Not met"),
    ("NDQANYSLNTD [ADA_Y290]", "c-Src", "Met"),
    ("KRAIGYYSATS [FAM120A_Y327]", "c-Src", "Not met"),
    ("SVTCTYSPTLN [TP53_Y126_A129T]", "c-Src", "Met"),
]

Given LFNQDYPIHSV [GATM_Y227_YF] , state whether its phosphorylation enrichment is at least 0.5. Met

Cool, now IENKLYGMSDP [RET_Y1062] Met

Cool, now ADLVQYFMEHH [PTPN11_Y80_E76D_YF] Met

Cool, now QMQNPYSSHSS [MUC13_Y501_R503S] Met

Cool, now TFGVLYKARNK [CDK2_Y19_V18L_YF] Not met

Cool, now MAPQMYESHLP [NCAPD2_Y6_F8S] Not met

Cool, now KNEVLYDGENH [ARFGEF1_Y314] Not met

Cool, now IGEGTYRQVYK [CDK13_Y716_G717R] Met

Cool, now AEPPDYSPVTQ [ADGRG2_Y285_H290Q] Met

###

Would you kindly list SH2 binding enrichment for each of these sequences?
Target: Grb2 SH2 (UniProt P62993)
Sequence (P62993 whole entry, looked up): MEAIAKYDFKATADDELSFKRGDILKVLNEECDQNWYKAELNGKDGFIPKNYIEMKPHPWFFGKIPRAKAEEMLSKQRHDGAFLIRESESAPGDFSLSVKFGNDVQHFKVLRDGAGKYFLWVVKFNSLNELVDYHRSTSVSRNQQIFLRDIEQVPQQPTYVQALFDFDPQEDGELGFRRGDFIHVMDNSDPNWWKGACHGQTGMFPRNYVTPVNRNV
Test: SH2 binding enrichment of the phosphorylated peptide, bacterial display (enrichment ratio); higher = better substrate or ligand; peptides without Tyr show the background
Numbers only.

Below, each entry is followed by its recorded SH2 binding enrichment result.
# Input sequence, System tested, Data value
records = [
    ("AHAGEYGAEAL [HBA1_Y25]", "Grb2 SH2 (UniProt P62993)", 0.683),
    ("GNEEAYGSSHI [FAM171B_Y522_R524S]", "Grb2 SH2 (UniProt P62993)", 0.663),
]

// below: SH2 binding enrichment requested for another sequence
Given the sequence SAPPSYEETVA [LITAF_Y23] , what is its reported SH2 binding enrichment? 0.761

###

Would you kindly list phosphorylation enrichment for each of these sequences?
Biological target: Jak2 (UniProt O60674)
Sequence (O60674 whole entry, looked up): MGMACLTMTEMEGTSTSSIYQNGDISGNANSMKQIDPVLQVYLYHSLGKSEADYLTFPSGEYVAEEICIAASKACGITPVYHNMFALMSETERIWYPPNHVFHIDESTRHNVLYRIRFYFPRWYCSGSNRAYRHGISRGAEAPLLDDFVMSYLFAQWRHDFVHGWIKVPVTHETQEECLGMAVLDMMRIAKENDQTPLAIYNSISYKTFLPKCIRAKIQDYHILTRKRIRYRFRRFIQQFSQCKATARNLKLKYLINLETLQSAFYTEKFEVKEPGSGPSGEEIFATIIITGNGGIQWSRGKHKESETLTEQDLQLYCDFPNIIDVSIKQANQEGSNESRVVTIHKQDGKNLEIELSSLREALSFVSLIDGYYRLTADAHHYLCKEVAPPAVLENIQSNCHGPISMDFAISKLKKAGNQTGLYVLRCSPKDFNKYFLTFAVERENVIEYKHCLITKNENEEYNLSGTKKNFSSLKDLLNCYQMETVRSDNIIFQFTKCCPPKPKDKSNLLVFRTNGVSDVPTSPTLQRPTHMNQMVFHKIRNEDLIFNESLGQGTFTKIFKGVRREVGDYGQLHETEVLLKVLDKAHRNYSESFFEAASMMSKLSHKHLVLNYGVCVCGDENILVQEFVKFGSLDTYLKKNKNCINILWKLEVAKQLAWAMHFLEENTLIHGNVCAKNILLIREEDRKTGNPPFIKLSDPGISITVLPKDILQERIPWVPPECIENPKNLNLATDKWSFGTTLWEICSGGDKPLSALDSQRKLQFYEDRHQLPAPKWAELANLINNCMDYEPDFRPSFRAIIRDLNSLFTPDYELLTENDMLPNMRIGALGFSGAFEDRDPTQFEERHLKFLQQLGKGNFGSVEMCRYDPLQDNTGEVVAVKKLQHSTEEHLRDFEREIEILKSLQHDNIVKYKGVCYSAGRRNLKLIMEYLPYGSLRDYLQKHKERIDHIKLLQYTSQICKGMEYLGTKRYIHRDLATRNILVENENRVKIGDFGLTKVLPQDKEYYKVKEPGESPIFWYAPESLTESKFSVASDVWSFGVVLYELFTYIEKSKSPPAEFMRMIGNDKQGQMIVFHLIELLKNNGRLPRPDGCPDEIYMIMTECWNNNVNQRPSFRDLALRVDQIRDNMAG
Experiment: phosphorylation enrichment, bacterial display (enrichment ratio); higher = better substrate or ligand; peptides without Tyr show the background
Answers are plain numbers.

Below, each entry is followed by its recorded phosphorylation enrichment result.
# Input sequence, Measured endpoint, Data value
measured = [
    ("IVKAYYVHARA [AIPL1_Y268_R270H]", "phosphorylation enrichment", 0.818),
    ("AGQEEYSAMRD [HRAS_Y64]", "phosphorylation enrichment", 0.788),
]

Field: phosphorylation enrichment. Fill in for each record below.
1. KDHPDYEYQPR [SOX9_Y172_K173E]
2. TEGNGYISFNE [LCP1_Y28_D24E]
3. DVFLKHLNFAT [PDE6B_Y212_Y212H]

0.811
0.823
0.799

Field: phosphorylation enrichment. Fill in for each record below.
1. CTTIHYNFMCS [TP53_Y234_N239S_YF]
2. ISKTWYSAEQF [CD207_Y217_P213S]
3. EQSGSYIWVPA [DLG1_Y895]
4. HEKRAYICAHP [ACAD9_Y611_L606H]

[0.823, 0.604, 1.19, 1.3]

Field: phosphorylation enrichment. Fill in for each record below.
1. LIHTKCPQLLP [AHCY_Y143_Y143C]
2. RLKAKYAAATG [GLI3_Y933]
3. GVRLFYRVMES [RB1_Y454_YF]
4. FLAVGYHKPHI [IDS_Y225]

[0.654, 0.692, 1.38, 0.733]

###

Target: EPHB2 (UniProt P29323)
Sequence (P29323 whole entry, looked up): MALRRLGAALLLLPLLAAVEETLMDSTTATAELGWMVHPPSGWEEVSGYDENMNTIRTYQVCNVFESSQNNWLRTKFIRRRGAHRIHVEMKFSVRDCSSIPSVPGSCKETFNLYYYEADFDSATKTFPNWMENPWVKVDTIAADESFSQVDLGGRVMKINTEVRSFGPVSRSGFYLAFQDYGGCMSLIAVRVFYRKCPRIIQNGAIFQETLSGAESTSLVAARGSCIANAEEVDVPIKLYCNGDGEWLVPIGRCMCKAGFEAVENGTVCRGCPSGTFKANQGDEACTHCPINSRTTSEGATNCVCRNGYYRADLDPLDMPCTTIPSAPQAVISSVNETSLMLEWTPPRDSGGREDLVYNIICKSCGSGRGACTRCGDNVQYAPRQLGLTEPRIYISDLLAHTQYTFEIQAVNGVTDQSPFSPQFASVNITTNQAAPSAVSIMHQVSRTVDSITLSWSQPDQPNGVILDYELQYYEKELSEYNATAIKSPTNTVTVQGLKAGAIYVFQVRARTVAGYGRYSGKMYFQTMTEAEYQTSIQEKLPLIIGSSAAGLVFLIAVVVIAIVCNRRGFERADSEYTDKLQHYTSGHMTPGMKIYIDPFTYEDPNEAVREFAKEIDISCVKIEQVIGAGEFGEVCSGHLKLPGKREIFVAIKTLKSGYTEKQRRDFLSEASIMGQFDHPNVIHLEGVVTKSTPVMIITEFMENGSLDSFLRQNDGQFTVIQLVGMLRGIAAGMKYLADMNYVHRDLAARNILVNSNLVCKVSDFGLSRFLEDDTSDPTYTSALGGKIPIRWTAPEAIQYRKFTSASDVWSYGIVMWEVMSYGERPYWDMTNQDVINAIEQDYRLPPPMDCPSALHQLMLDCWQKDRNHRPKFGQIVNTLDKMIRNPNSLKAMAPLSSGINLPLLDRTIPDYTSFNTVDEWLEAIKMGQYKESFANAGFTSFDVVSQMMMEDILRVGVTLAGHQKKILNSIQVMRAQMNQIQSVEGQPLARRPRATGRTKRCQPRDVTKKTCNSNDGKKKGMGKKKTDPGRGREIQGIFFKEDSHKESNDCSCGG
Test: phosphorylation enrichment, bacterial display (enrichment ratio); higher = better substrate or ligand; peptides without Tyr show the background
Would you kindly list phosphorylation enrichment for each of these sequences?
Answers are plain numbers.

Below, each entry is followed by its recorded phosphorylation enrichment result.
# Input sequence, phosphorylation enrichment
measured = [
    ("MAPQMYESHLP [NCAPD2_Y6_F8S]", 0.702),
    ("KDHPDYEYQPR [SOX9_Y172_K173E]", 0.958),
    ("GKFHMYVAVWT [F13A1_Y161_R159H]", 0.479),
    ("SVTCTYSPTLN [TP53_Y126_A129T]", 0.682),
    ("FKEDPYLVVNP [MCM6_Y810_E806K_YF]", 0.617),
]

Field: phosphorylation enrichment. Fill in for each record below.
1. PQEVTYAQLDH [KIR3DL2_Y398]
2. LTFHMYADPNF [SOS1_Y618_YF]

1. 1.33
2. 1.45

###

Biological target: FGFR1 (UniProt P11362)
Sequence (P11362 whole entry, looked up): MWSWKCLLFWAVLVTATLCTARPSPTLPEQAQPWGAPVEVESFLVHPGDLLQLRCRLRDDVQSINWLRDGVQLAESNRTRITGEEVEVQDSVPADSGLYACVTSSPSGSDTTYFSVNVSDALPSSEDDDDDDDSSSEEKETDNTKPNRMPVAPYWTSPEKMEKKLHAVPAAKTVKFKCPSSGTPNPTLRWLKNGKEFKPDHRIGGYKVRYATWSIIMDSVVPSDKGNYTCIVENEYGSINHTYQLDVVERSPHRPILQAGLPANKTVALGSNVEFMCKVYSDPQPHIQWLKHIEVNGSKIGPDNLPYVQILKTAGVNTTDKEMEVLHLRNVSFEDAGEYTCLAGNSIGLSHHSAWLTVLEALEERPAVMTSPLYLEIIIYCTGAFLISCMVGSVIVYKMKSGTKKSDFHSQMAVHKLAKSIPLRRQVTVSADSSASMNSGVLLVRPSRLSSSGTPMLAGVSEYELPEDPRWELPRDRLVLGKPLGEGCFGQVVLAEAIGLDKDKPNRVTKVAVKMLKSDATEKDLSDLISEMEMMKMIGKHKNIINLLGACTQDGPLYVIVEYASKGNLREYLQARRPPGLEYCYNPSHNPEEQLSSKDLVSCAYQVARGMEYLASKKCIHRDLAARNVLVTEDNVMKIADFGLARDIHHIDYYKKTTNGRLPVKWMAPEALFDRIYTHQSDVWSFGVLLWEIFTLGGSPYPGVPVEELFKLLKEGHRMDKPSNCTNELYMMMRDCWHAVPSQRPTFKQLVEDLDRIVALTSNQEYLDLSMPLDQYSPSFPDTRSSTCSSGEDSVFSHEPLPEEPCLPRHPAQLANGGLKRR
Assay: phosphorylation enrichment, bacterial display (enrichment ratio); higher = better substrate or ligand; peptides without Tyr show the background
Measured endpoint: phosphorylation enrichment
One number for each entry.

# Input sequence, Measured endpoint, Data value
measured = [
    ("GREEFYSTHPH [LRRK2_Y1402]", "phosphorylation enrichment", 0.505),
    ("NFDRIYIFHLR [MYOF_Y1137_V1136I_YF]", "phosphorylation enrichment", 0.594),
]

Field: phosphorylation enrichment. Fill in for each record below.
1. KWHREYNSKYV [RICTOR_Y835]
2. FASALYRQRRS [FGF11_Y162_YF]
3. MAPQMYESHLP [NCAPD2_Y6_F8S]
4. YPLELYERVRM [PRKCG_Y312]
5. PLDGEYVTLQI [TP53_Y327_F328V]

0.37
0.668
0.477
0.481
1.75

Field: phosphorylation enrichment. Fill in for each record below.
1. EFTPLYPMLFG [SCLY_Y280]
2. KLQKKYGPIFS [CYP17A1_Y60_YF]
3. FGSSSYGGAGG [RPA2_Y14_YF]

[12.8, 0.308, 0.437]

Field: phosphorylation enrichment. Fill in for each record below.
1. NHYKRYNLCAE [PTEN_Y68_I67R]
2. RGDTVYTVNCM [KBTBD13_Y404_R408C]
3. GSIQQYIYKQE [PRG4_Y1271]
4. ENAGFYFRISA

1: 0.557; 2: 0.479; 3: 0.507; 4: 0.467

###

Would you kindly list phosphorylation enrichment for each of these sequences?
System: c-Abl (mouse)
Experiment: phosphorylation enrichment, bacterial display (enrichment ratio); higher = better substrate or ligand; peptides without Tyr show the background

Below, each entry is followed by its recorded phosphorylation enrichment result.
# Input sequence, System tested, phosphorylation enrichment
measured = [
    ("AFDNLYYWDQD [ERBB2_Y1221]", "c-Abl (mouse)", 0.81),
    ("DTKDDYSALSV [IL17RB_Y457_N458S]", "c-Abl (mouse)", 0.815),
    ("KELALYDENWF [RPS19_Y48_P47L]", "c-Abl (mouse)", 1.06),
    ("GKFRMYVAVWT [F13A1_Y161]", "c-Abl (mouse)", 0.762),
]

Field: phosphorylation enrichment. Fill in for each record below.
1. PLDGEHFTLQI [TP53_Y327_Y327H]
2. VGTTAYMAPEA [IRAK4_Y354]

1: 1.19; 2: 0.537

Field: phosphorylation enrichment. Fill in for each record below.
1. QTLTDYDIRFF [CSNK2A1_Y131_YF]
2. EFQLPYFNTVP [BMPR1A_Y457_M460T_YF]
3. IENKLYGMSDP [RET_Y1062]
4. QNTGYYYDLYG [PTPN11_Y62_D61Y]
5. TQRPFYKGGGG [TYROBP_Y112_YF]
6. IIRRLYLKWHP [SACS_Y4333]
7. DPTNTYARPAE [SGMS2_Y24]
8. YGMSSYITRED [FNDC3B_Y180_T179S]

1. 0.737
2. 0.615
3. 0.707
4. 1.25
5. 0.624
6. 0.721
7. 0.696
8. 0.645

Field: phosphorylation enrichment. Fill in for each record below.
1. NTSKMYIPHTD [EXPH5_Y782_D777N]
2. RMLREYQELMS [KRT74_Y425]
3. EFTPLYPMLFG [SCLY_Y280]
4. KKCTTYIDCDL [ASPA_Y64_R63T]
5. FVHDNYVIQRT [CPS1_Y1450_R1453Q]
6. GVYSRYFTTYD [CLCA1_Y661]

[0.532, 0.663, 0.849, 0.601, 0.52, 0.955]

Source listed as the supplement of paper PMC10065799.
